System: peptide-specific IgG in sera of cancer patients and healthy donors
Assay: Measurement of anti-peptide IgG in plasma by LUMINEX multiplexed flow cytometric assay
Assay type: binding, human
Conditions: serum of Uterine cervical Ca. patient #9, 1:100 dilution
# binarize Fluorescence intesity: threshold 80 inclusive, high side true, low side false

Recorded results for 5 sequences are shown here.
1) AYELKIANKL (SCCA 98-107 peptide) [SCCA-derived peptide, position 98-107]: false
2) LFGEKTYLFL (SCCA 107-116 peptide) [SCCA-derived peptide, position 107-116]: true
3) EFHCNHPFL (SCCA 362-370 peptide) [SCCA-derived peptide, position 362-370]: true
4) KFMFDLFQQF (SCCA 10-19 peptide) [SCCA-derived peptide, position 10-19]: false
5) QFQKLLTEF (SCCA 84-92 peptide) [SCCA-derived peptide, position 84-92]: false

# evaluate next
Does RFKVEESYDL (SCCA 286-295 peptide) [SCCA-derived peptide, position 286-295] have a reported Fluorescence intesity of at least 80?
true

* * *

Listing of entries alongside the reported Fluorescence intesity.
Test system: peptide-specific IgG in sera of cancer patients and healthy donors
Assay: Measurement of anti-peptide IgG in plasma by LUMINEX multiplexed flow cytometric assay
Assay type: binding, human
Details: serum of Uterine cervical Ca. patient #5, 1:100 dilution
Write the value as a bare number.

1) LFGEKTYLFL (SCCA 107-116 peptide) [SCCA-derived peptide, position 107-116]: 55

What Fluorescence intesity value was documented for this sequence, AYELKIANKL (SCCA 98-107 peptide) [SCCA-derived peptide, position 98-107] ?
0

Param item = KFMFDLFQQF (SCCA 10-19 peptide) [SCCA-derived peptide, position 10-19] ; retrieve measured Fluorescence intesity.
14

If you can, please state the reported Fluorescence intesity value of EYLDAIKKF (SCCA 118-126 peptide) [SCCA-derived peptide, position 118-126] .
0

Recorded Fluorescence intesity for QFQKLLTEF (SCCA 84-92 peptide) [SCCA-derived peptide, position 84-92] , please?
15

Fluorescence intesity for RFKVEESYDL (SCCA 286-295 peptide) [SCCA-derived peptide, position 286-295] ?
58

So what does the record say about Fluorescence intesity for EFHCNHPFL (SCCA 362-370 peptide) [SCCA-derived peptide, position 362-370] ?
3

* * *

Listing: Fluorescence intesity of selected sequences
Tested on: peptide-specific IgG in sera of cancer patients and healthy donors
Assay: Measurement of anti-peptide IgG in plasma by LUMINEX multiplexed flow cytometric assay
Format: binding, human
Details: serum of Uterine cervical Ca. patient #15, 1:100 dilution
Answer with the value's number alone.

Example results:
1. QFQKLLTEF (SCCA 84-92 peptide) [SCCA-derived peptide, position 84-92]: 116
2. EYLDAIKKF (SCCA 118-126 peptide) [SCCA-derived peptide, position 118-126]: 87
3. AYELKIANKL (SCCA 98-107 peptide) [SCCA-derived peptide, position 98-107]: 136
4. LFGEKTYLFL (SCCA 107-116 peptide) [SCCA-derived peptide, position 107-116]: 134

# lookup: Fluorescence intesity of RFKVEESYDL (SCCA 286-295 peptide) [SCCA-derived peptide, position 286-295]
129

What does the data say about its Fluorescence intesity? Entry: EFHCNHPFL (SCCA 362-370 peptide) [SCCA-derived peptide, position 362-370]
106

Name the reported Fluorescence intesity value associated with the sequence KFMFDLFQQF (SCCA 10-19 peptide) [SCCA-derived peptide, position 10-19]
154

* * *

Listed here are sequences together with their documented Fluorescence intesity.
Tested on: peptide-specific IgG in sera of cancer patients and healthy donors
Test: Measurement of anti-peptide IgG in plasma by LUMINEX multiplexed flow cytometric assay
Type: binding, human
Details: serum of Uterine cervical Ca. patient #25, 1:100 dilution

Consider the following illustrative entries.
1. LFGEKTYLFL (SCCA 107-116 peptide) [SCCA-derived peptide, position 107-116]: 16
2. EFHCNHPFL (SCCA 362-370 peptide) [SCCA-derived peptide, position 362-370]: 21
3. KFMFDLFQQF (SCCA 10-19 peptide) [SCCA-derived peptide, position 10-19]: 19

Which Fluorescence intesity is reported for this sequence? RFKVEESYDL (SCCA 286-295 peptide) [SCCA-derived peptide, position 286-295]
18

State the recorded Fluorescence intesity for this entry: QFQKLLTEF (SCCA 84-92 peptide) [SCCA-derived peptide, position 84-92]
17

Fill blank: measured Fluorescence intesity of the sequence EYLDAIKKF (SCCA 118-126 peptide) [SCCA-derived peptide, position 118-126] is ____.
15

Consider the sequence shown here: AYELKIANKL (SCCA 98-107 peptide) [SCCA-derived peptide, position 98-107] What is its recorded Fluorescence intesity?
17

* * *

Tested on: peptide-specific IgG in sera of cancer patients and healthy donors
Assay: Measurement of anti-peptide IgG in plasma by LUMINEX multiplexed flow cytometric assay
Type: binding, human
Settings: serum of Uterine cervical Ca. patient #7, 1:100 dilution
Result type: Fluorescence intesity

Recorded Fluorescence intesity, per entry:
1. RFKVEESYDL (SCCA 286-295 peptide) [SCCA-derived peptide, position 286-295]: 15
2. QFQKLLTEF (SCCA 84-92 peptide) [SCCA-derived peptide, position 84-92]: 12

Which Fluorescence intesity value is on record for EFHCNHPFL (SCCA 362-370 peptide) [SCCA-derived peptide, position 362-370] ?
11

// Fluorescence intesity lookup, key: LFGEKTYLFL (SCCA 107-116 peptide) [SCCA-derived peptide, position 107-116]
15

Name the recorded Fluorescence intesity for AYELKIANKL (SCCA 98-107 peptide) [SCCA-derived peptide, position 98-107] .
26

I'd like to know its Fluorescence intesity. The sequence in question is EYLDAIKKF (SCCA 118-126 peptide) [SCCA-derived peptide, position 118-126]
11

# query: Fluorescence intesity of entry KFMFDLFQQF (SCCA 10-19 peptide) [SCCA-derived peptide, position 10-19]
14

* * *

Overview of recorded Fluorescence intesity for various sequences
Test system: peptide-specific IgG in sera of cancer patients and healthy donors
Test: Measurement of anti-peptide IgG in plasma by LUMINEX multiplexed flow cytometric assay
Assay type: binding, human
Conditions: serum of Breast Ca. patient #43, 1:100 dilution
// response body must contain only the number

Solved entries:
1) EFHCNHPFL (SCCA 362-370 peptide) [SCCA-derived peptide, position 362-370]: 10
2) RFKVEESYDL (SCCA 286-295 peptide) [SCCA-derived peptide, position 286-295]: 58

// switching to the query sequence
# query: Fluorescence intesity of entry QFQKLLTEF (SCCA 84-92 peptide) [SCCA-derived peptide, position 84-92]
26

* * *

Test system: peptide-specific IgG in sera of cancer patients and healthy donors
Assay: Measurement of anti-peptide IgG in plasma by LUMINEX multiplexed flow cytometric assay
Format: binding, human
Conditions: serum of Breast Ca. patient #45, 1:100 dilution
Rule: measured Fluorescence intesity below 40 gets Met; anything equal to or greater than 40 gets Not met.

Worked examples, 2 sequences total:
1) KFMFDLFQQF (SCCA 10-19 peptide) [SCCA-derived peptide, position 10-19]: Not met
2) RFKVEESYDL (SCCA 286-295 peptide) [SCCA-derived peptide, position 286-295]: Not met

Could you please tell me whether Fluorescence intesity recorded for EFHCNHPFL (SCCA 362-370 peptide) [SCCA-derived peptide, position 362-370] is less than 40?
Met

Answer whether the sequence LFGEKTYLFL (SCCA 107-116 peptide) [SCCA-derived peptide, position 107-116] has Fluorescence intesity strictly less than 40
Not met

Quick check: does AYELKIANKL (SCCA 98-107 peptide) [SCCA-derived peptide, position 98-107] have Fluorescence intesity under 40?
Met

For EYLDAIKKF (SCCA 118-126 peptide) [SCCA-derived peptide, position 118-126] , is the recorded Fluorescence intesity below the cut-off of 40?
Met

* * *

The sequences listed here are annotated with their Fluorescence intesity.
System: peptide-specific IgG in sera of cancer patients and healthy donors
Assay: Measurement of anti-peptide IgG in plasma by LUMINEX multiplexed flow cytometric assay
Format: binding, human
Conditions: serum of Breast Ca. patient #43, 1:100 dilution

1. LFGEKTYLFL (SCCA 107-116 peptide) [SCCA-derived peptide, position 107-116]: 136
2. AYELKIANKL (SCCA 98-107 peptide) [SCCA-derived peptide, position 98-107]: 12
3. KFMFDLFQQF (SCCA 10-19 peptide) [SCCA-derived peptide, position 10-19]: 44

Endpoint output: Fluorescence intesity of EYLDAIKKF (SCCA 118-126 peptide) [SCCA-derived peptide, position 118-126] . Value?
7
